All values here come from patent US6143780A.

Test system: HIV-1/188-Leu
Assay: inhibition of syncytium formation in CEM cells, HIV-1 RT mutant 188-Leu
Assay type: cell-based
Details: Human immunodeficiency virus 1, CCRF-CEM, 96 h, read-out: EC50 188-Leu
From the text: CEM cells were obtained from the American Tissue Cell Culture Collection (Rockville, Md.) . HIV-1 (IIIB) was originally obtained from the culture supernatant of persistently HIV-1-infected H9 cells and was provided by R. C. Gallo and M. Popovic (National Cancer Institute, National Institutes of Health, Bethesda, Md.). […]
Quick reference for EC50 among some compounds

Sample answers from the record:
| SMILES_NOTATION | ASSAYED_SYSTEM | EC50 |
| --- | --- | --- |
| Cc1occc1C(=S)Nc1ccc(Cl)c(COc2ccccc2F)c1 | HIV-1/188-Leu | > 2 µg/mL |
| CC(=O)OCc1ccccc1OCc1cc(NC(=S)c2ccoc2C)ccc1Cl | HIV-1/188-Leu | > 2 µg/mL |

Let us examine a further case.
So for `COc1ccccc1OCc1cc(NC(=S)c2ccoc2C)ccc1Cl` , the logged EC50 turned out to be > 2 µg/mL

###

system: HIV-1/101-Glu; test: inhibition of syncytium formation in CEM cells, HIV-1 RT mutant 101-Glu; type: cell-based; settings: Human immunodeficiency virus 1, CCRF-CEM, 96 h, read-out: EC50 101-Glu
MEASURED_ATTRIBUTE: EC50

| SMILES_NOTATION | ASSAYED_SYSTEM | READOUT_VALUE |
| --- | --- | --- |
| Cc1occc1C(=S)Nc1ccc(Cl)c(COc2ccc(F)cc2)c1 | HIV-1/101-Glu | ≥ 2 µg/mL |
| CC(=O)OCc1ccccc1OCc1cc(NC(=S)c2ccoc2C)ccc1Cl | HIV-1/101-Glu | > 2 µg/mL |
| Cc1occc1C(=S)Nc1ccc(Cl)c(COc2cccc(C(F)(F)F)c2)c1 | HIV-1/101-Glu | > 2 µg/mL |

So for `Cc1occc1C(=S)Nc1ccc(Cl)c(COc2ccccc2CO)c1` , the logged EC50 turned out to be > 2 µg/mL
